Assay: Brain and plasma concentrations in mice after intraperitoneal administration (LC-MS-MS), non-compartmental analysis
Format: in vivo
Conditions: male, Swiss-Webster (Crl:CFW(SW)), mouse, brain/plasma, ip; supplement, 10 mg/kg i.p.; read-out: Kp,brain (AUC0–∞,brain / AUC0–∞,p)
Protocol: Doses are reported by weight of the specified salt. […] Body mass was measured to ±0.1 g. Mice were sacrificed by cervical dislocation, then decapitated for collection of brain and blood samples. […] Drug concentrations (ng mL^-1) refer to the free base, and were measured by liquid chromatography-tandem mass spectrometry (LC-MS-MS) as described previously. […] Compounds were detected in positive ion mode, tuned to the mass transition with the largest intensity. […]
Readout: Kp
Just the number, please.

Which Kp value is on record for `Oc1ccc2c3c1O[C@H]1c4[nH]c5c(c4C[C@@]4(O)[C@@H](C2)N(CC2CC2)CC[C@]314)C[C@@]1(O)[C@H]2Cc3ccc(O)c4c3[C@@]1(CCN2CC1CC1)[C@H]5O4` ? 0.0924
